Please go through the items and note down their cell viability.
- Tested on: OCI-AML2
- experimental.protocol: cell viability relative to vehicle control; higher = less cytotoxic;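 further: after 48 h exposure read by CellTiter-Glo luminescence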
- condition.details: 10 µM; SRSF2 genotype: P95H/wt
Where a name gives a salt, the structure may show the parent alone.
Answers are plain numbers, in %.

Reference set (2 entries):
COc1ccccc1OCC(O)CN1CCN(CC(=O)Nc2c(C)cccc2C)CC1 (stereo not drawn) [Ranolazine (Ranexa)] :: 94.9
C#CC[C@H](c1nc2cc(Cl)ccc2c(=O)n1Nc1ccccc1)N(CCCN)C(=O)c1cccc(Cl)c1F :: 0.41

Quick one: give me cell viability for each item below, same order please.
1. Cc1ncc(CO)c(CO)c1O [Pyridoxine hydrochloride]
2. COc1ccc2cc1Oc1ccc(cc1)C[C@H]1c3cc(c(OC)cc3CCN1C)Oc1c(O)c(OC)cc3c1[C@H](C2)N(C)CC3
3. CCCN(CCc1cccs1)[C@H]1CCc2c(O)cccc2C1
4. O=C(O)c1cc(/N=N/c2ccc(O)c(C(=O)O)c2)ccc1O [Olsalazine Sodium]
5. O=C1CN(/N=C/C=C/c2ccc([N+](=O)[O-])o2)C(=O)N1
6. Cc1c(CN2CCN(C(=O)[C@H](C)O)CC2)sc2c(N3CCOCC3)nc(-c3cnc(N)nc3)nc12
7. CC12CCC(C1)C(C)(C)C2O (stereo not drawn)
8. Cc1cc(O)c(-c2ccc([C@@H](C)CN(C)C)cc2)c2c1[nH]c(=O)c1sccc12

Result:
[104, 0.4, 107, 94.1, 101, 5.46, 91.5, 0.39]

Quick one: give me cell viability for each item below, same order please.
1. Cc1ccc(C(=O)Nc2ccc(CN3CCN(C)CC3)c(C(F)(F)F)c2)cc1C#Cc1cnc2[nH]ncc2c1 [GZD824 Dimesylate]
2. O=C(O)Cc1cccc2ccccc12 [Potassium 1-Naphthaleneacetate]
3. CC1(C)CC(=O)c2c(C(F)(F)F)nn(-c3ccc(C(N)=O)c(N[C@H]4CC[C@H](O)CC4)c3)c2C1
4. O=C(c1ccc(F)cc1)N1CCCC(c2nc(-c3ccc(F)cc3)no2)C1 (stereo not drawn)
5. O=CC[C@@H](O)[C@H](O)[C@H](O)CO
6. Cc1ccc(-c2csc(NC(=O)c3ccccc3)n2)c(C)c1
7. COc1cccc(C(N)=O)c1 [3-Methoxybenzamide]

Result:
[0.16, 103, 13.9, 64.8, 91.3, 63.8, 101]

Ask: Please look at this molecule and report its cell viability: "Cc1ncc(CCCN(C)C)cc1Nc1ncc2c(n1)-c1ccc(C(F)(F)F)cc1NC(=S)C2"
Result: 16.3

###

Please go through the items and note down their cell viability.
- System: OCI-AML2
- experimental.protocol: cell viability relative to vehicle control; higher = less cytotoxic
- condition.details: 10 µM; SRSF2 genotype: wt/wt
Numbers only, in %.

Cc1ccc(NC(=O)c2ccc(CN3CCN(C)CC3)cc2)cc1Nc1nccc(-c2cccnc2)n1 [Imatinib (STI571)] :: 72.3
CCOC(=O)CC(=O)N1CCSC1COc1ccccc1OC (centres undefined) :: 92
CC1OC(OC2C(CO)OC(OCC3OC(OC(=O)C45CCC(C)(C)CC4C4=CCC6C7(C)CCC(OC8OCC(O)C(O)C8O)C(C)(CO)C7CCC6(C)C4(C)CC5)C(O)C(O)C3O)C(O)C2O)C(O)C(O)C1O (centres undefined) [Hederacoside D] :: 103

Query compound follows.
Ask: Please look at this compound and report its cell viability: C=C1CC23CCC4C(C)(C(=O)OC5OC(CO)C(O)C(O)C5O)CCCC4(C)C2CCC1(OC1OC(CO)C(O)C(OC2OC(CO)C(O)C(O)C2O)C1OC1OC(C)C(O)C(O)C1O)C3 (centres undefined) [Rebaudioside C]
Result: 101

###

- Test system: MARIMO
- experimental.protocol: cell viability relative to vehicle control; higher = less cytotoxic
- condition.details: 10 µM; SRSF2 genotype: SRSF2 wt/wt
Counter-ions that a name gives are not always drawn.
endpoint.label: cell viability (%)
Answers are plain numbers, in %.

Reference set (10 entries):
O=C(NC1CCN(CCCCC2(C(=O)NCC(F)(F)F)c3ccccc3-c3ccccc32)CC1)c1ccccc1-c1ccc(C(F)(F)F)cc1 [Lomitapide Mesylate] :: 0.68
Cc1ccc2nc(NC(=O)CSc3nc4c(c(=O)n3-c3ccccc3)SCC4)sc2c1 :: 98.9
CC(C)n1c([C@H](C)Nc2ncnc(N)c2C#N)cc2cccc(-c3ccc(=O)n(C)c3)c2c1=O :: 34
CCC1=C(C)CN(C(=O)NCCc2ccc(S(=O)(=O)NC(=O)N[C@H]3CC[C@H](C)CC3)cc2)C1=O [Glimepiride] :: 116
CN(C)Cc1ccc(-c2nc3cccc4c3n2CCNC4=O)cc1 :: 78.9
O=C(/C=C/c1cncc(F)c1)c1c(-c2ccccc2)c2cc(Cl)ccc2[nH]c1=O :: 0.38
NC(=O)c1cc(F)cc2c1C(=O)N(C1CCN(C3CCC(F)(F)CC3)CC1)C2 :: 106
O=C1CCC(N2C(=O)c3ccccc3C2=O)C(=O)N1 (stereo not drawn) [Thalidomide] :: 86.4
O=C(NCCS(=O)(=O)c1ccc(C(F)(F)F)cn1)c1ccc(Cl)cc1 :: 102
OC[C@@H](O)[C@@H](O)[C@@H](O)CO :: 93.4

Quick one: give me cell viability for each item below, same order please.
1. O=C(O)CCc1ccc(NCc2cccc(Oc3ccccc3)c2)cc1
2. CCCCS(=O)(=O)N[C@@H](Cc1ccc(OCCCCC2CCNCC2)cc1)C(=O)O [Tirofiban Hydrochloride]

Result:
93.1
104

Quick one: give me cell viability for each item below, same order please.
1. OC1CCC(Nc2ncc3nc(Nc4c(F)cc(F)cc4F)n([C@H]4CCOC4)c3n2)CC1 (stereo partly drawn)
2. CC1=CC(=O)CC(C)(C)C1=O
3. COc1cccc(-n2c(=O)[nH]c3cc(Cl)n(-c4ccc(-c5cccc(OC)c5O)cc4)c3c2=O)c1
4. O=S(=O)(c1ccccc1)N(CC(F)(F)F)c1ccc(C(O)(C(F)(F)F)C(F)(F)F)cc1
5. COCCc1ccc(OCC(O)CNC(C)C)cc1 (stereo not drawn) [Metroprolol succinate]
6. CC(C)CC(CC(=O)NO)C(=O)N[C@@H](Cc1ccc2ccccc2c1)C(=O)N[C@@H](C)C(=O)NCCN (stereo partly drawn)

Result:
1: 103; 2: 110; 3: 117; 4: 70.4; 5: 110; 6: 109

###

- Tested on: MOLM14
- experimental.protocol: cell viability relative to vehicle control; higher = less cytotoxic
- condition.details: 10 µM; SRSF2 genotype: SRSF2 P95H/wt
Counter-ions that a name gives are not always drawn.
endpoint.label: cell viability
Lab note: write values as number then unit, every time.

CC1=NN(c2ccccc2)C(=O)C1 [Edaravone (MCI-186)] :: 96.3%
C[C@H](C[C@H](O)[C@@H](O)C(C)(C)O)C1=C2C[C@H](O)[C@H]3[C@@]4(C)CCC(=O)C(C)(C)[C@@H]4CC[C@]3(C)[C@@]2(C)CC1 [Alisol A] :: 98.4%
CC(C)(Sc1cc(C(C)(C)C)c(O)c(C(C)(C)C)c1)Sc1cc(C(C)(C)C)c(O)c(C(C)(C)C)c1 [Probucol] :: 102%
COc1cc2nc(N3CCN(C(=O)C4CCCO4)CC3)nc(N)c2cc1OC (stereo not drawn) [Terazosin HCl Dihydrate] :: 99.1%
O=C(O)CCn1c(O)c(C2=c3cc(Cl)ccc3=NC2=O)sc1=S :: 71.7%
CN(C)C(=N)NC(=N)N [Metformin hydrochloride (Glucophage)] :: 105%
O=C1C(N(CO)C(=O)NCO)N(CO)C(=O)N1CO (stereo not drawn) [Diazolidinyl urea] :: 93.8%

Ask: Supply cell viability measured with MOLM14 for O=C1N=C(O)NC1(c1ccccc1)c1ccccc1 [Phenytoin sodium (Dilantin)] .
Result: 97.7%

###

- System: K562
- experimental.protocol: cell viability relative to vehicle control; higher = less cytotoxic
- condition.details: 10 µM; SRSF2 genotype: SRSF2 wt/wt
Structures can show the parent of a compound that is named as a salt.
Please go through the items and note down their cell viability.
One number for each entry, in %.

Reference set (5 entries):
COc1ccnc2[nH]cc(C(=O)C(=O)N3CCN(C(=O)c4ccccc4)C[C@H]3C)c12 :: 84.5
C[C@]12CC[C@@H]3c4ccc(O)cc4CC[C@H]3[C@@H]1C[C@@H](O)[C@@H]2O :: 87.9
Nc1nc(Nc2ccc(S(N)(=O)=O)cc2)nn1C(=O)c1c(F)cccc1F :: 31.2
CC(C)C[C@H](NC(=O)[C@H](CCc1ccccc1)NC(=O)CN1CCOCC1)C(=O)N[C@@H](Cc1ccccc1)C(=O)N[C@@H](CC(C)C)C(=O)[C@@]1(C)CO1 :: 1.72
CN(C)N(C)C(=O)[C@@]1(Cc2ccccc2)CCCN(C(=O)[C@@H](Cc2c[nH]c3ccccc23)NC(=O)C(C)(C)N)C1 :: 80.7

Quick one: give me cell viability for each item below, same order please.
1. O=C(O)c1ccc(N2C(=O)C(=Cc3ccc(-c4ccc([N+](=O)[O-])cc4)o3)C=C2c2ccccc2)cc1
2. Cc1cccc2c3c(ccc12)C1=C(C(=O)C3=O)[C@@H](C)CO1 [Dihydrotanshinone I]
3. COc1ccc(-n2c(C)c([N+](=O)[O-])c3ccc(O)cc32)cc1
4. Cc1ncc(CCCN(C)C)cc1Nc1ncc2c(n1)-c1ccc(C(F)(F)F)cc1NC(=S)C2
5. CNc1cc(-c2cccc(Cl)c2Cl)nc(N)n1
6. CC1=CC(=O)c2ccccc2C1=O
7. C=C(C(=O)O)C1CCC(C)C2CCC(C)=CC12 (stereo not given)
8. Cc1ccc(NC(=O)c2ccc(CN3CC[C@H](N(C)C)C3)c(C(F)(F)F)c2)cc1Nc1nccc(-c2cncnc2)n1

Result:
1. 84.5
2. 2.64
3. 94
4. 54.3
5. 29.6
6. 108
7. 113
8. 4.57

Quick one: give me cell viability for each item below, same order please.
1. CN(C)CC/C=C1/c2ccccc2COc2ccc(CC(=O)O)cc21 [Olopatadine hydrochloride (Opatanol)]
2. C/C=C(/C)C(=O)O[C@H]1[C@@H](OC(C)=O)c2c(ccc3ccc(=O)oc23)OC1(C)C [(+)-Praeruptorin A]
3. COc1cc2c(c(O)c1OC)-c1c(cc(OC)c(OC)c1OC)C[C@@H](C)[C@@H](C)C2
4. NC(N)=N/N=C/c1c(Cl)cccc1Cl [Guanabenz (WY-8678) Acetate]
5. Cc1ccc2c(c1)c1c(n2CCc2ccc(C)nc2)CCN(C)C1 [Latrepirdine 2HCl]
6. C[C@]12CCC(=O)C=C1CC[C@@H]1[C@@H]2[C@@H](O)C[C@@]2(C)[C@H]1CC[C@]2(O)C(=O)CO [Hydrocortisone (Cortisol)]
7. Cn1cc(-c2ccc3ncc(Cc4ccc5ncccc5c4)n3n2)cn1

Result:
1: 102; 2: 90.2; 3: 97.1; 4: 84; 5: 80.2; 6: 110; 7: 98

Quick one: give me cell viability for each item below, same order please.
1. Cc1ncc(COP(=O)(O)O)c(C=O)c1O [Pyridoxal 5-phosphate monohydrate]
2. Nc1nc(N)c2nc(-c3cccc(O)c3)cnc2n1
3. Fc1ccc(Cl)cc1-c1nc(Nc2ccncc2)c2nccnc2n1
4. Nc1ccccc1NC(=O)c1cnccn1

Result:
1: 101; 2: 83.4; 3: 79.9; 4: 82.8

Quick one: give me cell viability for each item below, same order please.
1. Cc1cccc(C)c1N(CC(=O)Nc1ccc(-c2ncon2)cc1)C(=O)C1CCS(=O)(=O)CC1
2. CC1(C)CCC2(C(=O)O)CCC3=C(CCC4C3(C)CCC3C4(C)CC(O)C(O)C3(C)C(=O)O)C2C1 (stereo not given)
3. Cc1c(C)c(NCC(=O)N(C)C2CCN(Cc3ccc(C(N)=O)cc3)CC2)c(C)c(C)c1N
4. CCOC(=O)C=Cc1ccc(OC)cc1 [Ethyl 4-Methoxycinnamate]
5. O=S(=O)(O)c1ccc2cc(N=Nc3cc(S(=O)(=O)O)c4cccnc4c3O)ccc2c1
6. NC(=O)c1cccc(N)c1 [INO-1001 (3-Aminobenzamide)]
7. NC(=O)c1nc(F)cnc1O

Result:
1: 98.8; 2: 82; 3: 100; 4: 80; 5: 89; 6: 94.7; 7: 95.8

Quick one: give me cell viability for each item below, same order please.
1. O[C@H]1[C@H]2c3cc4c(cc3CN3CCC(=C[C@@H]1O)[C@H]23)OCO4 [Lycorine hydrochloride]
2. CC(C)OC(=O)CCC/C=C\C[C@@H]1[C@@H](/C=C/C(F)(F)COc2ccccc2)[C@H](O)C[C@@H]1O
3. C=C1CCOC1=O
4. O=C(NCC1(c2nc(-c3ccccc3)cs2)CCOCC1)c1cccc(-c2noc(C(F)(F)F)n2)c1

Result:
[28.4, 92.1, 104, 86.5]
